assay: Residual rate of the active substance in monomer solution (HPLC); type: physicochemical; conditions: monomer: Butyl Acrylate; 3 parts per 100 parts monomer
Property: Residual Rate of active substance, Immediately after Preparation; scope: individual compounds
Parameter: Residual Rate of active substance, Immediately after Preparation (% by weight)

- Compound: "CC(C)(C)NCC(O)c1ccccc1Cl (stereo not shown) [TB, tulobuterol]"
  Value reported: 100
- Compound: "COc1ccc2c(c1)c(CC(=O)O)c(C)n2C(=O)c1ccc(Cl)cc1 [IMT, indomethacin]"
  Value reported: 100
- Compound: "COc1ccc(OC)c(C(O)CN)c1 (stereo not shown) [DMAE, 2-amino-1-(2′,5′-dimethoxyphenyl)ethanol]"
  Value reported: 27
- Compound: "O=[N+]([O-])O[C@H]1CO[C@H]2[C@@H]1OC[C@H]2O[N+](=O)[O-] [ISDN, isosorbide dinitrate]"
  Value reported: 100

* * *

experiment: Residual rate of the active substance in monomer solution (HPLC); format: physicochemical; conditions: monomer: Dodecyl Methacrylate; preserved at 25° C. for 7 days
A collection of molecules and their measured Residual Rate of active substance, after 7 Days
Parameter: Residual Rate of active substance, after 7 Days (% by weight)

- Molecule: "O=[N+]([O-])O[C@H]1CO[C@H]2[C@@H]1OC[C@H]2O[N+](=O)[O-] [ISDN, isosorbide dinitrate]"
  Value reported: 100
- Molecule: "COc1ccc(OC)c(C(O)CN)c1 (stereo not shown)"
  Value reported: 99
- Molecule: "COc1ccc2c(c1)c(CC(=O)O)c(C)n2C(=O)c1ccc(Cl)cc1"
  Value reported: 100
- Molecule: "CC(C)(C)NCC(O)c1ccccc1Cl (stereo not shown)"
  Value reported: 100

* * *

test: Residual rate of the active substance in monomer solution (HPLC); type: physicochemical; details: monomer: 2-Ethylhexyl Methacrylate; 3 parts per 100 parts monomer
Residual Rate of active substance, Immediately after Preparation listing for selected compounds.
Parameter: Residual Rate of active substance, Immediately after Preparation (% by weight)

- Compound: "CC(C)(C)NCC(O)c1ccccc1Cl (stereo not shown)"
  Value reported: 100
- Compound: "COc1ccc2c(c1)c(CC(=O)O)c(C)n2C(=O)c1ccc(Cl)cc1"
  Value reported: 100
- Compound: "O=[N+]([O-])O[C@H]1CO[C@H]2[C@@H]1OC[C@H]2O[N+](=O)[O-] [ISDN, isosorbide dinitrate]"
  Value reported: 100
- Compound: "COc1ccc(OC)c(C(O)CN)c1 (stereo not shown)"
  Value reported: 99

* * *

assay: Residual rate of the active substance in monomer solution (HPLC); format: physicochemical; conditions: monomer: 2-Ethylhexyl Methacrylate; preserved at 25° C. for 7 days
Parameter: Residual Rate of active substance, after 7 Days

- Compound: "O=[N+]([O-])O[C@H]1CO[C@H]2[C@@H]1OC[C@H]2O[N+](=O)[O-] [ISDN, isosorbide dinitrate]"
  Value reported: "99 % by weight"
- Compound: "COc1ccc(OC)c(C(O)CN)c1 (stereo not shown)"
  Value reported: "99 % by weight"
- Compound: "COc1ccc2c(c1)c(CC(=O)O)c(C)n2C(=O)c1ccc(Cl)cc1"
  Value reported: "100 % by weight"
- Compound: "CC(C)(C)NCC(O)c1ccccc1Cl (stereo not shown)"
  Value reported: "100 % by weight"

* * *

test: Solvency of the active substance in monomer (visual inspection); format: physicochemical; set-up: key: Excellent: The active substance was not found to have been precipitated in the solution of active substance both immediately after the preparation and after the preservation for 7 days.; Good: The active substance was found to have been precipitated in the solution of active substance immediately after the preparation, but the active substance was not found to have been precipitated in the solution of active substance after the preservation for 7 days.; Poor: The active substance was found to have been precipitated in the solution of active substance both immediately after the preparation and after the preservation for 7 days; settings: monomer: Butyl Acrylate; 3 parts active substance per 100 parts monomer; 25° C., 7 days
Parameter: Solvency of active substance

- Molecule: "COc1ccc(OC)c(C(O)CN)c1 (stereo not shown)"
  Parameter: "Solvency of active substance"
  Value reported: "Good"
- Molecule: "CC(C)(C)NCC(O)c1ccccc1Cl (stereo not shown)"
  Parameter: "Solvency of active substance"
  Value reported: "Excellent"
- Molecule: "COc1ccc2c(c1)c(CC(=O)O)c(C)n2C(=O)c1ccc(Cl)cc1"
  Parameter: "Solvency of active substance"
  Value reported: "Poor"
- Molecule: "O=[N+]([O-])O[C@H]1CO[C@H]2[C@@H]1OC[C@H]2O[N+](=O)[O-] [ISDN, isosorbide dinitrate]"
  Parameter: "Solvency of active substance"
  Value reported: "Excellent"

* * *

Recorded Residual Rate of active substance, after 7 Days values for a group of molecules are listed next.
test: Residual rate of the active substance in monomer solution (HPLC); type: physicochemical; conditions: monomer: Butyl Methacrylate; preserved at 25° C. for 7 days
Parameter: Residual Rate of active substance, after 7 Days (% by weight)

- Molecule: "COc1ccc2c(c1)c(CC(=O)O)c(C)n2C(=O)c1ccc(Cl)cc1"
  Value reported: 99
- Molecule: "CC(C)(C)NCC(O)c1ccccc1Cl (stereo not shown)"
  Value reported: 100
- Molecule: "O=[N+]([O-])O[C@H]1CO[C@H]2[C@@H]1OC[C@H]2O[N+](=O)[O-] [ISDN, isosorbide dinitrate]"
  Value reported: 100
- Molecule: "COc1ccc(OC)c(C(O)CN)c1 (stereo not shown)"
  Value reported: 98

* * *

experiment: Solvency of the active substance in monomer (visual inspection); format: physicochemical; parameters: key: Excellent: The active substance was not found to have been precipitated in the solution of active substance both immediately after the preparation and after the preservation for 7 days.; Good: The active substance was found to have been precipitated in the solution of active substance immediately after the preparation, but the active substance was not found to have been precipitated in the solution of active substance after the preservation for 7 days.; Poor: The active substance was found to have been precipitated in the solution of active substance both immediately after the preparation and after the preservation for 7 days; conditions: monomer: Dodecyl Methacrylate; 3 parts active substance per 100 parts monomer; 25° C., 7 days

- Compound: "COc1ccc2c(c1)c(CC(=O)O)c(C)n2C(=O)c1ccc(Cl)cc1 [IMT, indomethacin]"
  Solvency of active substance: "Poor"
- Compound: "CC(C)(C)NCC(O)c1ccccc1Cl (stereo not shown) [TB, tulobuterol]"
  Solvency of active substance: "Good"
- Compound: "COc1ccc(OC)c(C(O)CN)c1 (stereo not shown) [DMAE, 2-amino-1-(2′,5′-dimethoxyphenyl)ethanol]"
  Solvency of active substance: "Poor"

* * *

test: Solvency of the active substance in monomer (visual inspection); type: physicochemical; design: key: Excellent: The active substance was not found to have been precipitated in the solution of active substance both immediately after the preparation and after the preservation for 7 days.; Good: The active substance was found to have been precipitated in the solution of active substance immediately after the preparation, but the active substance was not found to have been precipitated in the solution of active substance after the preservation for 7 days.; Poor: The active substance was found to have been precipitated in the solution of active substance both immediately after the preparation and after the preservation for 7 days; conditions: monomer: 2-Ethylhexyl Methacrylate; 3 parts active substance per 100 parts monomer; 25° C., 7 days

- Molecule: "COc1ccc2c(c1)c(CC(=O)O)c(C)n2C(=O)c1ccc(Cl)cc1"
  Solvency of active substance: "Poor"
- Molecule: "COc1ccc(OC)c(C(O)CN)c1 (stereo not shown)"
  Solvency of active substance: "Poor"
- Molecule: "CC(C)(C)NCC(O)c1ccccc1Cl (stereo not shown)"
  Solvency of active substance: "Excellent"
- Molecule: "O=[N+]([O-])O[C@H]1CO[C@H]2[C@@H]1OC[C@H]2O[N+](=O)[O-] [ISDN, isosorbide dinitrate]"
  Solvency of active substance: "Excellent"

* * *

assay: Residual rate of the active substance in monomer solution (HPLC); assay type: physicochemical; settings: monomer: Acrylic Acid; preserved at 25° C. for 7 days
Parameter: Residual Rate of active substance, after 7 Days (% by weight)

- Compound: "COc1ccc(OC)c(C(O)CN)c1 (stereo not shown)"
  Value reported: 97
- Compound: "O=[N+]([O-])O[C@H]1CO[C@H]2[C@@H]1OC[C@H]2O[N+](=O)[O-] [ISDN, isosorbide dinitrate]"
  Value reported: 100
- Compound: "COc1ccc2c(c1)c(CC(=O)O)c(C)n2C(=O)c1ccc(Cl)cc1"
  Value reported: 100
- Compound: "CC(C)(C)NCC(O)c1ccccc1Cl (stereo not shown)"
  Value reported: 96

* * *

test: Solvency of the active substance in monomer (visual inspection); assay type: physicochemical; parameters: key: Excellent: The active substance was not found to have been precipitated in the solution of active substance both immediately after the preparation and after the preservation for 7 days.; Good: The active substance was found to have been precipitated in the solution of active substance immediately after the preparation, but the active substance was not found to have been precipitated in the solution of active substance after the preservation for 7 days.; Poor: The active substance was found to have been precipitated in the solution of active substance both immediately after the preparation and after the preservation for 7 days; details: monomer: Ethyl Acrylate; 3 parts active substance per 100 parts monomer; 25° C., 7 days
Parameter: Solvency of active substance

- Molecule: "COc1ccc(OC)c(C(O)CN)c1 (stereo not shown)"
  Parameter: "Solvency of active substance"
  Value reported: "Excellent"
- Molecule: "O=[N+]([O-])O[C@H]1CO[C@H]2[C@@H]1OC[C@H]2O[N+](=O)[O-] [ISDN, isosorbide dinitrate]"
  Parameter: "Solvency of active substance"
  Value reported: "Excellent"
- Molecule: "CC(C)(C)NCC(O)c1ccccc1Cl (stereo not shown)"
  Parameter: "Solvency of active substance"
  Value reported: "Excellent"
- Molecule: "COc1ccc2c(c1)c(CC(=O)O)c(C)n2C(=O)c1ccc(Cl)cc1"
  Parameter: "Solvency of active substance"
  Value reported: "Poor"
